Reference for the values: PubChem BioAssay (NCI)

Record form. Attribute: TGI. Fill in for each entry.
- Tested on: OVCAR-8 ovarian
- ASSAY NOTES: NCI tumour cell line growth inhibition, 48 h

Examples with answers:
Cc1oc(N)c(S(=O)(=O)c2cc3ccccc3n(O)c2=N)c1C : > 100 µM
COc1cc(C(C[N+](=O)[O-])SC(C)=O)ccc1OCc1ccccc1 (stereo unspecified) : 13.6 µM
CCCCCCSCC/C(C)=N\OC : > 100 µM
COC(=O)c1cc(NC(=O)c2cc(NC(=O)Cc3c[nH]c4ccccc34)cn2C)cn1C : > 100 µM
CCN(CC)C(=S)SC1C(=O)NC(=O)NC1=O : > 100 µM

Provide TGI for all items below, preserving their order.
1. O=C(Nc1ccc(-n2ccc3c(NC(=O)c4ccccc4)nccc32)cc1)Nc1cccc(C(F)(F)F)c1
2. CS(C)(=O)=Nn1c(=O)n2n(c1=O)C1c3ccccc3C2c2ccccc21

Ans.
["17.9 µM", "> 100 µM"]

Provide TGI for all items below, preserving their order.
1. N#Cc1ncn(CCO)c1N
2. CC1C(=O)c2cc3c(cc2CCN(C)Cc2c1ccc1c2OCO1)OCO3 (stereo unspecified)
3. OCc1ccc(N2CCc3cc(F)ccc3C2)cc1Cl
4. COc1ccc2nc(-c3ccccc3)cc(Nc3cccc(C(C)=O)c3)c2c1

Ans.
["> 100 µM", "> 75 µg/mL", "20.8 µM", "14.8 µM"]
